System: CCRIS mutagenicity, Ames/micronucleus/aberration tests
Test: CCRIS mutagenicity studies
Details: Test System: AMES SALMONELLA TYPHIMURIUM; Strain/Indicator: TA100; Metabolic Activation: NONE; Method: STANDARD PLATE
Activity calls are given as the source filed them. How the calls were made is not given here.
Entry note: the call must match one of active, inactive

Example entries and their recorded answers appear below.
{"columns": ["MOLECULE", "CLASS ASSIGNMENT"],
 "data": [
  ["CCOS(=O)(=O)c1ccc(C)cc1", "inactive"],
  ["CC(=O)O[C@H]1CC[C@@]2(C)C(=CC[C@H]3[C@@H]4CC[C@H]([C@H](C)CCCC(C)C)[C@@]4(C)CC[C@@H]32)C1", "inactive"],
  ["COc1cc(N)c([N+](=O)[O-])cc1N", "inactive"]
]}

Recorded test outcome, item CC1=C(C(=O)OC(C)C)C(c2cccc([N+](=O)[O-])c2)C(C(=O)OC2CN(C(c3ccccc3)c3ccccc3)C2)=C(N)N1 (stereo not given) inactive

// repeat for COC(=O)c1cc2c(c3c1c([N+](=O)[O-])cc1c(OC)cccc13)OCO2 and report active

// repeat for C=CCC1OC(=O)C=CC1O (stereo not given) and report inactive

// repeat for CC(=O)ON(OCc1ccccc1)C(=O)c1ccccc1 and report active

// repeat for O=C1C=CC(=O)C=C1 and report inactive

// repeat for O=c1oc2ccc([N+](=O)[O-])cc2c2ccccc12 and report active

// repeat for CN=C1C=CC(=C(c2ccc(N(C)C)cc2)c2ccc(N(C)C)cc2)C=C1 and report inactive

// repeat for C=CC1CO1 (stereo not given) and report active

// repeat for CCCCC(CC)COC(=O)c1ccc(N(C)C)c([N+](=O)[O-])c1 (stereo not given) and report inactive

// repeat for OC[C@H]1OC(O[C@H]2[C@H](O)[C@@H](O)C(O[C@H]3[C@H](O)[C@@H](O)[C@@H](O)O[C@@H]3CO)O[C@@H]2CO)[C@H](O)[C@@H](O)[C@@H]1O (stereo not given in full) and report inactive

// repeat for O=S(=O)(Nc1ccc(Cl)cc1)c1cccc2cccnc12 and report inactive

// repeat for Cc1cc2ncccc2c2nc(N)n(C)c12 and report inactive

// repeat for C1CCC(C(CC2CCCCN2)C2CCCCC2)CC1 (stereo not given) and report inactive

// repeat for CCNc1nc(N)nc(Cl)n1 and report inactive

// repeat for ClCC(Br)CBr (stereo not given) and report inactive

// repeat for O=c1[nH]c(=O)n([C@H]2C[C@H](O)[C@@H](CO)O2)cc1CO and report active

// repeat for O=C1c2ccccc2CN2C(=O)c3ccccc3CN12 and report inactive

// repeat for O=CN(O)c1ccc(Cl)c(Cl)c1 and report inactive

// repeat for O=Nc1c2ccccc2c2ccc3cccc4ccc1c2c43 and report active

###

System: CCRIS mutagenicity, Ames/micronucleus/aberration tests
Assay: CCRIS mutagenicity studies
Conditions: Test System: AMES SALMONELLA TYPHIMURIUM; Strain/Indicator: TA1535; Metabolic Activation: S-9; Method: STANDARD PLATE
The source made the active and inactive calls. No rule for the calls is given here.
Entry note: the call must match one of active, inactive

Example entries and their recorded answers appear below.
{"columns": ["COMPOUND", "STUDY TARGET", "CLASS ASSIGNMENT"],
 "data": [
  ["Nc1snc2c(Cl)cc(Cl)cc12", "CCRIS mutagenicity, Ames/micronucleus/aberration tests", "inactive"],
  ["Cc1cccc(OCC(O)CNC(C)(C)C)c1C (stereo not given)", "CCRIS mutagenicity, Ames/micronucleus/aberration tests", "inactive"],
  ["Nc1snc2ccc([N+](=O)[O-])cc12", "CCRIS mutagenicity, Ames/micronucleus/aberration tests", "inactive"],
  ["CCOC(=O)C1(CCCCCCOCc2cccs2)CO1 (stereo not given)", "CCRIS mutagenicity, Ames/micronucleus/aberration tests", "inactive"],
  ["Cc1ccc2nsc(NC(=O)C(Cl)Cl)c2c1", "CCRIS mutagenicity, Ames/micronucleus/aberration tests", "inactive"],
  ["CN(N=O)C(=O)c1c(N(C)N=O)ncn1C", "CCRIS mutagenicity, Ames/micronucleus/aberration tests", "active"],
  ["Cc1snc2ccccc12", "CCRIS mutagenicity, Ames/micronucleus/aberration tests", "inactive"],
  ["O=[N+]([O-])c1cccc2csnc12", "CCRIS mutagenicity, Ames/micronucleus/aberration tests", "inactive"]
]}

Recorded test outcome, item CCOC(=O)c1ccccc1C(=O)OCC inactive

// repeat for CC(=O)Nc1snc2ccccc12 and report inactive
